These measurements were taken from the supplement of paper PMC9233669.

test system: biotinyl-Ile-oxazolone; assay: self-aminoacylation, catalytic enhancement (BIO) (fold over background); higher = more active; k-Seq, kA / k0A0; sequences stand for … in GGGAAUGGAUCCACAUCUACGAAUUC…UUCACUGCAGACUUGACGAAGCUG
Fewer inactive variants are shown than the library holds.
Assign Criterion met to entries whose self-aminoacylation meets or exceeds 0.9; assign Criterion not met to the rest.

Below, 4 sequences whose answers are already recorded.
biopolymer_sequence="AUUCAUCUAGGUCAUCCGGUG [Fam2.2 aminoacylation ribozyme variant]" tested_on=biotinyl-Ile-oxazolone class_label="Criterion met"
biopolymer_sequence="AUUACACGGGUCAUCGAGUGA [Fam2.1 aminoacylation ribozyme variant]" tested_on=biotinyl-Ile-oxazolone class_label="Criterion met"
biopolymer_sequence="AAGUUUGCUAAUUGUCGCAAG [Fam3.1 aminoacylation ribozyme variant]" tested_on=biotinyl-Ile-oxazolone class_label="Criterion not met"
biopolymer_sequence="CUACUUCAAACAAUCGGUAUG [Fam1A.1 aminoacylation ribozyme variant]" tested_on=biotinyl-Ile-oxazolone class_label="Criterion not met"

// switching to the query sequence
Incoming: Could you please find out whether AAGUUUGCUAAUAGUGGCGAG [Fam3.1 aminoacylation ribozyme variant] has self-aminoacylation that meets 0.9 or exceeds it?
Outgoing: Criterion met

---

Could you please report measured self-aminoacylation for the items listed next?
tested on: biotinyl-Ile-oxazolone; assay: self-aminoacylation, catalytic enhancement (BIO) (fold over background); higher = more active; k-Seq, kA / k0A0; sequences stand for … in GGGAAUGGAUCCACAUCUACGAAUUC…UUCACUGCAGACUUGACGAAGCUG
This sample holds only a part of the variants without activity.
Answers are plain numbers.

Example entries begin here.
biopolymer_sequence="AUCACCCUGGUCAUCGGGUGA [Fam2.1 aminoacylation ribozyme variant]" assay_endpoint=self-aminoacylation assay_value=5.17
biopolymer_sequence="CCUCACUUCAAGCAAUCGGUC [Fam1B.1 aminoacylation ribozyme variant]" assay_endpoint=self-aminoacylation assay_value=1.07
biopolymer_sequence="AAGUUUGCUAAUACUCGCCAG [Fam3.1 aminoacylation ribozyme variant]" assay_endpoint=self-aminoacylation assay_value=0.916
biopolymer_sequence="CUACUUCAAACAAAGGGUCUG [Fam1A.1 aminoacylation ribozyme variant]" assay_endpoint=self-aminoacylation assay_value=0.756
biopolymer_sequence="CUACUUCAAUCAAUCGGUCGG [Fam1A.1 aminoacylation ribozyme variant]" assay_endpoint=self-aminoacylation assay_value=1.15
biopolymer_sequence="AUUAACCUGGUCAUAGAGUGA [Fam2.1 aminoacylation ribozyme variant]" assay_endpoint=self-aminoacylation assay_value=2.31

For every record below, what is its self-aminoacylation?
1. CAACUUCAACCAAUCGGUCUG [Fam1A.1 aminoacylation ribozyme variant]
2. AAGUUUGCCAAUAGACGCAAG [Fam3.1 aminoacylation ribozyme variant]

Outgoing:
1. 1.37
2. 0.591

---

Please go through the items and note down their self-aminoacylation.
test system: biotinyl-Val-oxazolone; assay: self-aminoacylation, catalytic enhancement (BVO) (fold over background); higher = more active; k-Seq, kA / k0A0; sequences stand for … in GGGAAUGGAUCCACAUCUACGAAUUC…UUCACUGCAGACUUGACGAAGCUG
This sample holds only a part of the variants without activity.
Numbers only.

Sample answers from the record:
biopolymer_sequence="CUACUUCAGACCAUCGGUCUG [Fam1A.1 aminoacylation ribozyme variant]" assay_endpoint=self-aminoacylation assay_value=1.07
biopolymer_sequence="AUUACCCUGGUCAACGCGUGA [Fam2.1 aminoacylation ribozyme variant]" assay_endpoint=self-aminoacylation assay_value=6.15
biopolymer_sequence="CCGCACUUCAAGCAAUCGGUU [Fam1B.1 aminoacylation ribozyme variant]" assay_endpoint=self-aminoacylation assay_value=2.45
biopolymer_sequence="GUUACCCCGGUCAUCGAGUGA [Fam2.1 aminoacylation ribozyme variant]" assay_endpoint=self-aminoacylation assay_value=3.38
biopolymer_sequence="CUACUUCAAACAACGGGUCUG [Fam1A.1 aminoacylation ribozyme variant]" assay_endpoint=self-aminoacylation assay_value=0.904
biopolymer_sequence="AAGUUUUCUAAUAGUCGCAUG [Fam3.1 aminoacylation ribozyme variant]" assay_endpoint=self-aminoacylation assay_value=1.2
biopolymer_sequence="AAGAUUGCUAAUAGUCGCAAA [Fam3.1 aminoacylation ribozyme variant]" assay_endpoint=self-aminoacylation assay_value=1.3
biopolymer_sequence="CCACACCUCCAGCAAUCGGUC [Fam1B.1 aminoacylation ribozyme variant]" assay_endpoint=self-aminoacylation assay_value=1.4

For every item in the list below, what is its measured self-aminoacylation?
1. AGUCACCUCGGUCAUCGGGUG [Fam2.2 aminoacylation ribozyme variant]
2. CCACACUUCAAGCAGACGGUC [Fam1B.1 aminoacylation ribozyme variant]
3. AUUUACCUAGGUCAUCGUGUG [Fam2.2 aminoacylation ribozyme variant]
4. AUUACCCUAGGUCAUCGGGUG [Fam2.2 aminoacylation ribozyme variant]
5. AUUACCCGGGUCAUCGAAUGA [Fam2.1 aminoacylation ribozyme variant]
6. CCUCAGUUCAAGCAAUCGGUC [Fam1B.1 aminoacylation ribozyme variant]

Outgoing:
4.18
0.57
0.953
5.13
1.29
1.03

Items follow; give self-aminoacylation for each.
1. GUACACCUAGGUCAUCGGGUG [Fam2.2 aminoacylation ribozyme variant]
2. CCAAACUUCAAGCAAACGGUC [Fam1B.1 aminoacylation ribozyme variant]
3. AUUCACCUACGUCAUCGUGUG [Fam2.2 aminoacylation ribozyme variant]
4. CCACACUUCAAUCAAUCGGCC [Fam1B.1 aminoacylation ribozyme variant]

Outgoing:
1: 2.53; 2: 0.846; 3: 0.818; 4: 2.11

---

test system: biotinyl-Ile-oxazolone; assay: self-aminoacylation, catalytic enhancement (BIO) (fold over background); higher = more active; k-Seq, kA / k0A0; sequences stand for … in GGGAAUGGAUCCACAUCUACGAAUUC…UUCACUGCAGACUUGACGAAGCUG
Variants at the floor of the assay were thinned out.
Would you mind labelling by self-aminoacylation? At or over 3 is yes (1), under is no (0).

Known results for sequences:
biopolymer_sequence="AUUACCCUGGUUAUCGGGUGA [Fam2.1 aminoacylation ribozyme variant]" class_label="yes (1)"
biopolymer_sequence="CCACACUUCAAGCCAUCGGGC [Fam1B.1 aminoacylation ribozyme variant]" class_label="no (0)"
biopolymer_sequence="AUUGAACUAGGUCAUCGGGUG [Fam2.2 aminoacylation ribozyme variant]" class_label="yes (1)"

Incoming: Determine whether this sequence has self-aminoacylation no lower than 3: CCGCACUUCAAGCAUUCGGUC [Fam1B.1 aminoacylation ribozyme variant]
Outgoing: no (0)

Incoming: # bool: self-aminoacylation of AAGUUUCCUAAUAGUCGCAGG [Fam3.1 aminoacylation ribozyme variant] >= 3
Outgoing: no (0)

Incoming: Hello, I need to know if AAGUCUGCUAAUAGACGCAAG [Fam3.1 aminoacylation ribozyme variant] has measured self-aminoacylation not below 3. Thanks!
Outgoing: no (0)

Incoming: State whether the measured self-aminoacylation reaches 3, counting equality as reaching it, for AUGCAUCUAGGUCAUCGGGUG [Fam2.2 aminoacylation ribozyme variant]
Outgoing: yes (1)

Incoming: In plain terms: is recorded self-aminoacylation at least 3 for CCUCAAUUCAAGCAAUCGGUC [Fam1B.1 aminoacylation ribozyme variant] ?
Outgoing: no (0)

Incoming: Confirm if self-aminoacylation reported for the sequence AUUACCCUAGUCAUCGGGUGA [Fam2.1 aminoacylation ribozyme variant] is 3 or above.
Outgoing: yes (1)

---

tested on: biotinyl-Trp-oxazolone; assay: self-aminoacylation, catalytic enhancement (BWO) (fold over background); higher = more active; k-Seq, kA / k0A0; sequences stand for … in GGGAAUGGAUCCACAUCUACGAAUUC…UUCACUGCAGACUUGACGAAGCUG
Fewer inactive variants are shown than the library holds.
For each record, write down the corresponding self-aminoacylation.
Answers are plain numbers.

Here's what some known entries look like.
biopolymer_sequence="AAGUUUGCUAAAUGUCGCAAG [Fam3.1 aminoacylation ribozyme variant]" assay_value=0.74
biopolymer_sequence="AUUACCCUGGUACUCGAGUGA [Fam2.1 aminoacylation ribozyme variant]" assay_value=3.35
biopolymer_sequence="ACUCACCUAGGUCAUGGGGUG [Fam2.2 aminoacylation ribozyme variant]" assay_value=4.43

Below is a list of sequences. For each, state its recorded self-aminoacylation.
1. AAGAUUGCUAAUAGUCGCUAG [Fam3.1 aminoacylation ribozyme variant]
2. AAGUUUGGUAAUAGGCGCAAG [Fam3.1 aminoacylation ribozyme variant]
3. AUUCUCCUAGGCCAUCGGGUG [Fam2.2 aminoacylation ribozyme variant]
4. AUGACCCUGGUCAUCGCGUGA [Fam2.1 aminoacylation ribozyme variant]
5. AAGUUUGCUAAUAGUCGCAUU [Fam3.1 aminoacylation ribozyme variant]

Outgoing:
1. 0.937
2. 0.712
3. 5.32
4. 19.7
5. 1.29

Incoming: Return self-aminoacylation for the following sequence: AUUACCCUGGUCGUCGAGUCA [Fam2.1 aminoacylation ribozyme variant]
Outgoing: 0.444

---

Record form. Attribute: self-aminoacylation. Fill in for each entry.
system: biotinyl-Ile-oxazolone; test: self-aminoacylation, catalytic enhancement (BIO) (fold over background); higher = more active; k-Seq, kA / k0A0; sequences stand for … in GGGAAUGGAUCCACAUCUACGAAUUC…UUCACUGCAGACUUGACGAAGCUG
Variants at the floor of the assay were thinned out.

Example cases with answers are listed next.
biopolymer_sequence="AAGUUUGCCAGUAGUCGCAAG [Fam3.1 aminoacylation ribozyme variant]" assay_value=1.04
biopolymer_sequence="AUCCACUUAGGUCAUCGGGUG [Fam2.2 aminoacylation ribozyme variant]" assay_value=5.19
biopolymer_sequence="AUUAAACUAGGUCAUCGGGUG [Fam2.2 aminoacylation ribozyme variant]" assay_value=2.89
biopolymer_sequence="AUUACCCAGGUCAUCCAGUGA [Fam2.1 aminoacylation ribozyme variant]" assay_value=3.13
biopolymer_sequence="AUUACCCUGGUCCUCAAGUGA [Fam2.1 aminoacylation ribozyme variant]" assay_value=1.64

Look at each sequence and report its self-aminoacylation.
1. AUUGCCCUGGUCAUCGAGUGG [Fam2.1 aminoacylation ribozyme variant]
2. AUUCACCUCGGUCAUCGGGGG [Fam2.2 aminoacylation ribozyme variant]
3. AAGUUAGCUAAUAAUCGCAAG [Fam3.1 aminoacylation ribozyme variant]
4. CUAGUUCAAACAAUCGCUCUG [Fam1A.1 aminoacylation ribozyme variant]
5. AUUCACCUCGGACAUCGGGUG [Fam2.2 aminoacylation ribozyme variant]
6. AUUACCCUGGUAAUCGAGAGA [Fam2.1 aminoacylation ribozyme variant]
7. AUUCUCCUAGGUUAUCGGGUG [Fam2.2 aminoacylation ribozyme variant]

Outgoing:
1: 9.44; 2: 2.66; 3: 1.77; 4: 0.832; 5: 3.09; 6: 1.02; 7: 4.08

Report self-aminoacylation for each item below.
1. AUUACCCUGGUCACCGAGUCA [Fam2.1 aminoacylation ribozyme variant]
2. AUUCCCCUAGGUCAACGGGUG [Fam2.2 aminoacylation ribozyme variant]
3. AUUACCCUCGUCACCGAGUGA [Fam2.1 aminoacylation ribozyme variant]
4. AUUUACCUAGGUCAACGGGUG [Fam2.2 aminoacylation ribozyme variant]
5. CUACUUCUAACAAUCGGUCGG [Fam1A.1 aminoacylation ribozyme variant]
6. AUUACCCGCGUCAUCGAGUGA [Fam2.1 aminoacylation ribozyme variant]

Outgoing:
[1.43, 6.94, 2.33, 2.56, 0.843, 2.37]
